Hello, the source for this data is patent US11254904B2, in case you need it.

test: Evaluation of drug sorption (drug residual rate)
Assay type: physicochemical
test conditions: 10 μmol/L drug solution, 0.5 ml per well, 23° C., 2 days; average of three wells
Where a name gives a salt, the structure may show the parent alone.
Overview of reported drug residual rate, PDMS Vessel (Comparative Example 8) across a group of molecules:
observation type: drug residual rate, PDMS Vessel (Comparative Example 8)

# molecule, experimental value
data = [
    ("CCN(CC)c1ccc2c(-c3ccccc3C(=O)O)c3ccc(=[N+](CC)CC)cc-3oc2c1.[Cl-] [Rhodamine B, rhodamine B]", "2%"),
    ("Clc1ccccc1CN1CCc2sccc2C1 [Ticlopidine Hydrochloride, ticlopidine hydrochloride]", "1%"),
    ("Cc1oncc1C(=O)Nc1ccc(C(F)(F)F)cc1 [Leflunomide, leflunomide]", "2%"),
    ("CC(C)NCC(O)c1ccc(O)c(O)c1 (stereo not shown) [Isoproterenol Hydrochloride, isoproterenol hydrochloride]", "1%"),
]

###

test: Evaluation of drug sorption (drug residual rate)
Assay type: physicochemical
test conditions: 10 μmol/L drug solution, 0.5 ml per well, 23° C., 2 days; average of three wells
Where a name gives a salt, the structure may show the parent alone.
observation type: drug residual rate, 4-methyl-1-pentene Polymer Vessel (Example 11) (%)

# molecule, units, experimental value
measured = [
    ("Clc1ccccc1CN1CCc2sccc2C1 [Ticlopidine Hydrochloride, ticlopidine hydrochloride]", "%", 64),
    ("CC(C)NCC(O)c1ccc(O)c(O)c1 (stereo not shown) [Isoproterenol Hydrochloride, isoproterenol hydrochloride]", "%", 63),
    ("Cc1oncc1C(=O)Nc1ccc(C(F)(F)F)cc1 [Leflunomide, leflunomide]", "%", 68),
    ("CCN(CC)c1ccc2c(-c3ccccc3C(=O)O)c3ccc(=[N+](CC)CC)cc-3oc2c1.[Cl-]", "%", 98),
]

###

test: Evaluation of drug sorption (drug residual rate)
Type: physicochemical
test conditions: 10 μmol/L drug solution, 0.5 ml per well, 23° C., 2 days; average of three wells
Where a name gives a salt, the structure may show the parent alone.
Listing of entries alongside the reported drug residual rate, PS Vessel (Comparative Example 7).
observation type: drug residual rate, PS Vessel (Comparative Example 7) (%)

# compound, experimental value
measured = [
    ("Clc1ccccc1CN1CCc2sccc2C1 [Ticlopidine Hydrochloride, ticlopidine hydrochloride]", 67),
    ("Cc1oncc1C(=O)Nc1ccc(C(F)(F)F)cc1 [Leflunomide, leflunomide]", 70),
    ("CCN(CC)c1ccc2c(-c3ccccc3C(=O)O)c3ccc(=[N+](CC)CC)cc-3oc2c1.[Cl-]", 90),
    ("CC(C)NCC(O)c1ccc(O)c(O)c1 (stereo not shown) [Isoproterenol Hydrochloride, isoproterenol hydrochloride]", 65),
]
